target of assay: T1, IL-18 binding protein (IL-18BP) (UniProt O95998 31-194)
T1 sequence (looked up): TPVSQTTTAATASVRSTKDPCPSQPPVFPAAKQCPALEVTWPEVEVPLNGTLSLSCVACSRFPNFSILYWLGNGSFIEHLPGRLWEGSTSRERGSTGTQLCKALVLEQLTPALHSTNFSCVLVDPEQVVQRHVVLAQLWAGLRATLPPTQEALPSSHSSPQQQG
assay name: cell-based or functional assay
Label key: Yes means Ratio (-BP/+BP), DF-25000007 under 1; No means Ratio (-BP/+BP), DF-25000007 of 1 or more.

Please review the following examples before continuing.
IL-18 variant G3L, E6Q, T63S, N91L, R104P (ligand) YFLKLQSKLSVIRNLNDQVLFIDQGNRPLFEDMTDSDMRDNAPRTIFIISMYKDSQPRGMAVSISVKSEKISTLSSENKIISFKEMNPPDLIKDTKSDIIFFQPSVPGHDNKMQFESSSYEGYFLASEKERDLFKLILKKEDELGDRSIMFTVQNED : No
IL-18 variant G3S, E6Q, K53S, D54Y, S55H, N91L, R104Q (ligand) YFSKLQSKLSVIRNLNDQVLFIDQGNRPLFEDMTDSDMRDNAPRTIFIISMYSYHQPRGMAVTISVKSEKISTLSSENKIISFKEMNPPDLIKDTKSDIIFFQQSVPGHDNKMQFESSSYEGYFLASEKERDLFKLILKKEDELGDRSIMFTVQNED : Yes
IL-18 variant G3P, E6K, D54Y, S55P, T63S, N91S, R104Q (ligand) YFPKLKSKLSVIRNLNDQVLFIDQGNRPLFEDMTDSDMRDNAPRTIFIISMYKYPQPRGMAVSISVKSEKISTLSSENKIISFKEMNPPDSIKDTKSDIIFFQQSVPGHDNKMQFESSSYEGYFLASEKERDLFKLILKKEDELGDRSIMFTVQNED : Yes
IL-18 variant E6D, D54T, S55W, T63S, N91S, R104T (ligand) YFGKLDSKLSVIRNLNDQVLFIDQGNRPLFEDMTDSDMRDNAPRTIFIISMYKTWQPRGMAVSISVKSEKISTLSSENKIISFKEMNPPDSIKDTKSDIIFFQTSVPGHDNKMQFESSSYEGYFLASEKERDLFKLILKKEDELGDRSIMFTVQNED : No
IL-18 variant G3S, E6G, D54V, S55K, T63S, N91Y, R104T (ligand) YFSKLGSKLSVIRNLNDQVLFIDQGNRPLFEDMTDSDMRDNAPRTIFIISMYKVKQPRGMAVSISVKSEKISTLSSENKIISFKEMNPPDYIKDTKSDIIFFQTSVPGHDNKMQFESSSYEGYFLASEKERDLFKLILKKEDELGDRSIMFTVQNED : No
IL-18 variant G3Q, E6H, K53T, D54S, S55Y, N91Y, R104K (ligand) YFQKLHSKLSVIRNLNDQVLFIDQGNRPLFEDMTDSDMRDNAPRTIFIISMYTSYQPRGMAVTISVKSEKISTLSSENKIISFKEMNPPDYIKDTKSDIIFFQKSVPGHDNKMQFESSSYEGYFLASEKERDLFKLILKKEDELGDRSIMFTVQNED : No
IL-18 variant G3Y, E6S, K53S, D54W, S55L, T63S, N91I (ligand) YFYKLSSKLSVIRNLNDQVLFIDQGNRPLFEDMTDSDMRDNAPRTIFIISMYSWLQPRGMAVSISVKSEKISTLSSENKIISFKEMNPPDIIKDTKSDIIFFQRSVPGHDNKMQFESSSYEGYFLASEKERDLFKLILKKEDELGDRSIMFTVQNED : Yes
IL-18 variant G3P, E6H, N91L (ligand) YFPKLHSKLSVIRNLNDQVLFIDQGNRPLFEDMTDSDMRDNAPRTIFIISMYKDSQPRGMAVTISVKSEKISTLSSENKIISFKEMNPPDLIKDTKSDIIFFQRSVPGHDNKMQFESSSYEGYFLASEKERDLFKLILKKEDELGDRSIMFTVQNED : Yes

Dear colleague, could you confirm whether Ratio (-BP/+BP), DF-25000007 of IL-18 variant G3Q, E6H, S7Y, D23A, R27S, D54S, S55R, T63F, N91F, R104Q (ligand) YFQKLHYKLSVIRNLNDQVLFIAQGNSPLFEDMTDSDMRDNAPRTIFIISMYKSRQPRGMAVFISVKSEKISTLSSENKIISFKEMNPPDFIKDTKSDIIFFQQSVPGHDNKMQFESSSYEGYFLASEKERDLFKLILKKEDELGDRSIMFTVQNED falls below 1? Thanks.
No

Quick one: IL-18 variant G3Q, E6K, D54S, S55P, T63S, N91S, R104Q (ligand) YFQKLKSKLSVIRNLNDQVLFIDQGNRPLFEDMTDSDMRDNAPRTIFIISMYKSPQPRGMAVSISVKSEKISTLSSENKIISFKEMNPPDSIKDTKSDIIFFQQSVPGHDNKMQFESSSYEGYFLASEKERDLFKLILKKEDELGDRSIMFTVQNED
No

Do the same for IL-18 variant G3T, E6Q, K53G, D54G, S55H, T63A, S65T, N91R, R104Q (ligand) YFTKLQSKLSVIRNLNDQVLFIDQGNRPLFEDMTDSDMRDNAPRTIFIISMYGGHQPRGMAVAITVKSEKISTLSSENKIISFKEMNPPDRIKDTKSDIIFFQQSVPGHDNKMQFESSSYEGYFLASEKERDLFKLILKKEDELGDRSIMFTVQNED please
No

Next up: IL-18 variant G3Q, E6H, D54N, S55I, T63S, N91V (ligand) YFQKLHSKLSVIRNLNDQVLFIDQGNRPLFEDMTDSDMRDNAPRTIFIISMYKNIQPRGMAVSISVKSEKISTLSSENKIISFKEMNPPDVIKDTKSDIIFFQRSVPGHDNKMQFESSSYEGYFLASEKERDLFKLILKKEDELGDRSIMFTVQNED
No

Same read-out for IL-18 variant G3P, E6G, D54T, S55W, N91E, R104K (ligand) YFPKLGSKLSVIRNLNDQVLFIDQGNRPLFEDMTDSDMRDNAPRTIFIISMYKTWQPRGMAVTISVKSEKISTLSSENKIISFKEMNPPDEIKDTKSDIIFFQKSVPGHDNKMQFESSSYEGYFLASEKERDLFKLILKKEDELGDRSIMFTVQNED ?
Yes
